Source listed as ChEMBL document CHEMBL1149672.

- Test system: RT-112
- measurement_protocol: Cytotoxicity against NQO2 expressing human RT112 cells in presence of NRH cofactor by MTT assay
- Assay type: functional, cell-based
pIC50: −log10 of the molar value. Structures can show the parent of a compound that is named as a salt.
property: pIC50

{"compound": "C[n+]1c2ccc(F)cc2cc2[n-]c3c([N+](=O)[O-])cccc3c21", "property": "pIC50", "observed_measurement": 5.96}
{"compound": "C[n+]1c2ccc(F)cc2cc2[n-]c3ccc([N+](=O)[O-])cc3c21", "property": "pIC50", "observed_measurement": 5.78}
{"compound": "C[n+]1c2ccc(F)cc2cc2[n-]c3c([N+](=O)[O-])cc([N+](=O)[O-])cc3c21", "property": "pIC50", "observed_measurement": 6.72}
{"compound": "C[n+]1c2ccccc2cc2[n-]c3c([N+](=O)[O-])c(Cl)ccc3c21", "property": "pIC50", "observed_measurement": 6.19}
{"compound": "C[n+]1c2ccccc2cc2[n-]c3cc([N+](=O)[O-])c(Br)cc3c21", "property": "pIC50", "observed_measurement": 6.49}
{"compound": "C[n+]1c2ccccc2cc2[n-]c3ccccc3c21 [CRYPTOLEPINE HYDROCHLORIDE]", "property": "pIC50", "observed_measurement": 6.10}
{"compound": "C[n+]1c2ccc(Cl)cc2cc2[n-]c3c([N+](=O)[O-])cc([N+](=O)[O-])cc3c21", "property": "pIC50", "observed_measurement": 6.64}
{"compound": "C[n+]1c2ccccc2cc2[n-]c3c([N+](=O)[O-])cc(Br)cc3c21", "property": "pIC50", "observed_measurement": 6.82}
{"compound": "C[n+]1c2ccc(Cl)cc2cc2[n-]c3c([N+](=O)[O-])cccc3c21", "property": "pIC50", "observed_measurement": 6.09}

---

- Tested on: RT-112
- measurement_protocol: Cytotoxicity against NQO2 expressing human RT112 cells in presence of NRH cofactor by MTT assay
- Type: functional, cell-based
Recorded IC50 values for a group of compounds are listed next.
property: IC50

{"smiles_string": "C[n+]1c2ccccc2cc2[n-]c3cc(Cl)c([N+](=O)[O-])cc3c21", "property": "IC50", "observed_measurement": "1080 nM"}
{"smiles_string": "NC(=O)c1cc(N2CC2)c([N+](=O)[O-])cc1[N+](=O)[O-]", "property": "IC50", "observed_measurement": "150 nM"}
{"smiles_string": "C[n+]1c2ccc(Cl)cc2cc2[nH]c3ccc([N+](=O)[O-])cc3c21", "property": "IC50", "observed_measurement": "280 nM"}

---

Activity values by entry
- measurement_target: NAD(P)H dehydrogenase [quinone] 1 (Homo sapiens) (UniProt P15559)
- Sequence (P15559 whole entry): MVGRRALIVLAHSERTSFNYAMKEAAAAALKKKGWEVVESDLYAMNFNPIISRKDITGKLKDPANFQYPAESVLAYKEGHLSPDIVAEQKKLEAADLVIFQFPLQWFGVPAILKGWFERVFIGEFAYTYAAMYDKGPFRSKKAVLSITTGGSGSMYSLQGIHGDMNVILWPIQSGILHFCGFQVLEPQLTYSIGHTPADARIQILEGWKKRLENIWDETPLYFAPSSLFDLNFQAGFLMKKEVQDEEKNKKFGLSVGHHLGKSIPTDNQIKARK
- measurement_protocol: Activity of recombinant human NQO1 assessed as specific activity
Structures can show the parent of a compound that is named as a salt.

{"compound": "C[n+]1c2ccccc2cc2[n-]c3c([N+](=O)[O-])cc(Br)cc3c21", "Activity, µmol/min/mg": 8.66}
{"compound": "C[n+]1c2ccc(F)cc2cc2[n-]c3c([N+](=O)[O-])cc([N+](=O)[O-])cc3c21", "Activity, µmol/min/mg": 2.96}
{"compound": "C[n+]1c2ccccc2cc2[n-]c3ccccc3c21 [CRYPTOLEPINE HYDROCHLORIDE]", "Activity, µmol/min/mg": 4.53}
{"compound": "C[n+]1c2ccc(F)cc2cc2[n-]c3c([N+](=O)[O-])cccc3c21", "Activity, µmol/min/mg": 2.72}
{"compound": "NC(=O)c1cc(N2CC2)c([N+](=O)[O-])cc1[N+](=O)[O-]", "Activity, µmol/min/mg": 3.56}
{"compound": "C[n+]1c2ccc(Cl)cc2cc2[nH]c3ccc([N+](=O)[O-])cc3c21", "Activity, µmol/min/mg": 18.9}
{"compound": "C[n+]1c2ccccc2cc2[n-]c3cc([N+](=O)[O-])c(Br)cc3c21", "Activity, µmol/min/mg": 13.9}
{"compound": "C[n+]1c2ccccc2cc2[n-]c3c([N+](=O)[O-])c(Cl)ccc3c21", "Activity, µmol/min/mg": 26.7}
{"compound": "Cn1c(/C=C/CO)c(CO)c2c1C(=O)C=C(N1CC1)C2=O", "Activity, µmol/min/mg": 79.8}
